- System: OVCAR-3 ovarian
- PROTOCOL TEXT: NCI tumour cell line growth inhibition, 48 h
READOUT: TGI

Please review the following examples before continuing.
OC(CCN1CCN(CCOC(c2ccc(F)cc2)c2ccc(F)cc2)CC1)c1ccccc1 (stereo unspecified): 31.4 µM
Cc1ccc(-c2n[nH]c(=O)n2N)cc1: > 100 µM
O=C(O)c1cc2c3c(c1)[C@H]1C=CC[C@H]1CN3CC1CC=CC21 (stereo partly specified): > 100 µM
COc1cc(CSc2ccc(O)cc2)cc(O)c1O: 67.6 µM
CCOC(=O)c1c(SCC#N)n(-c2ccccc2)c(=S)n(-c2ccccc2)c1=O: > 100 µM

Note: attention shifts to another entry.
Which value of TGI has been reported for `NC(=O)c1nnc2cc(F)c(F)cc2c1N` in the records?
> 100 µM
